Numbers sourced from BindingDB's records for doi:10.7270/Q2TX3CTT.

target: Glycogen synthase kinase-3 beta (Homo sapiens); assay: concentration-response blocking of human GSK3B – biochemical, luminescence, cell-free homogeneous, retest, dose response (AID 434954)
Sequence (P49841 whole entry): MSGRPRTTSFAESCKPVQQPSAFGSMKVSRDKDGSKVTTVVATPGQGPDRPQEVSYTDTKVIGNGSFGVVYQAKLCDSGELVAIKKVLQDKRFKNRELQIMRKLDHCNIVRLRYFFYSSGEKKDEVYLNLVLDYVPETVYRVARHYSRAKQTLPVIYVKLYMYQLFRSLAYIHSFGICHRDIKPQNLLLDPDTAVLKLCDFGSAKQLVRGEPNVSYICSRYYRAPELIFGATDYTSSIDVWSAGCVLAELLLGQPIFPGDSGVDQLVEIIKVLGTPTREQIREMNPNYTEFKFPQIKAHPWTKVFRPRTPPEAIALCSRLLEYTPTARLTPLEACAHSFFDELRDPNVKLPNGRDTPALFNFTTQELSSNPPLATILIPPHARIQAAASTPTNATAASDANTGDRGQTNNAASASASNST
pEC50: −log10 of the molar value.
Measured metric: pEC50

Illustrative cases are given below, each with its answer.
{"Compound": "N#Cc1ccccc1CSc1nnc(-c2ccncc2)o1", "pEC50": 4.68}
{"Compound": "N#CCCN1CCCc2cc(/N=N/c3ccc(C(F)(F)F)cc3)ccc21", "pEC50": "< 3.52"}
{"Compound": "COc1cc(OC)c(OC)cc1CNCC1COc2ccccc2O1 (stereo unspecified)", "pEC50": "< 3.52"}
{"Compound": "O=C(C1=C[C@@H](c2ccc(C(F)(F)F)cc2)C[C@@H](OCCCCO)O1)N1CCN(Cc2ccccc2)CC1", "pEC50": "< 3.52"}
{"Compound": "Cc1nc(N2CCOCC2)nc(N2CCCCC2C)c1[N+](=O)[O-] (stereo unspecified)", "pEC50": "< 3.52"}
{"Compound": "O=C1N=C(Nc2ccccc2)SC1=Cc1cccnc1", "pEC50": "< 3.52"}
{"Compound": "CCOC(=O)c1c(C)[nH]c(C)c1S(=O)(=O)N(C)CC(=O)Nc1cccc(F)c1", "pEC50": "< 3.52"}
{"Compound": "Cc1noc2c1C(c1ccc(N(C)C)cc1)C1C(=O)CC(C)(C)CC1=N2 (stereo unspecified)", "pEC50": "< 3.52"}
{"Compound": "CN1CCc2c(sc3c2c(=O)n(-c2ccccc2)c2nncn32)C1", "pEC50": "< 3.52"}
{"Compound": "CC1CCCCN1c1nnc(N)s1 (stereo unspecified)", "pEC50": "< 3.52"}

### Prompt # value lookup — system Glycogen synthase kinase-3 beta (Homo sapiens), readout pEC50, item CC1CCCN(S(=O)(=O)c2ccc(Br)s2)C1 (stereo unspecified)
### Response < 3.52

### Prompt Request: CCOC(=O)c1ccc2c(c1)[n+](CC)c(/C=C/N(C)c1ccccc1)n2CC
### Response < 3.52

### Prompt Record: CCOC(=O)C1C(C)=Nc2ncnn2C1c1ccc2c(c1)OCO2 (stereo unspecified)
### Response < 3.52

* * *

molecular target: Glycogen synthase kinase-3 beta (Homo sapiens); experiment: concentration-response blocking of human GSK3B – biochemical, luminescence, cell-free homogeneous, retest, dose response (AID 434954)
Measured metric: EC50

### Prompt Would you mind telling me what EC50 value was observed for Brc1ccc(CSc2nnc(-c3cccnc3)o2)cc1 [SMR000292494] ?
### Response > 300 µM

### Prompt Now the same for O=C(NN=Cc1ccc2nccnc2c1)c1ccncc1
### Response > 300 µM

### Prompt COc1ccccc1/C=C/C=C1\Oc2c(ccc(O)c2CN(C)C)C1=O ?
### Response 33.8 µM

### Prompt Likewise for O=C(NCCc1ccccc1)c1cccc(Br)c1 ?
### Response > 300 µM

### Prompt Can you check Oc1ccc(N2CCN(C(=S)NCCc3ccccc3)CC2)cc1 [SMR000199335] next?
### Response > 300 µM

### Prompt Param item: Cc1cc(CN(C)C(=O)c2ccc(OC3CCN(CCc4ccccc4)CC3)cc2)on1 [MLS001100796]
### Response > 300 µM

### Prompt Please answer likewise for CC(=NNC(=O)c1ccc(C(=O)NN=C(C)c2ccco2)o1)c1ccco1
### Response > 300 µM

### Prompt Please give the result for Fc1ccc(CSc2nnc(-c3ccccn3)o2)cc1 too.
### Response > 300 µM

### Prompt Also CN(Cc1ccccc1)Cc1nc2c([nH]1)c(=O)n(C)c(=O)n2C ?
### Response > 300 µM
